Taken from the domain aggregation screens of Martell et al. (2025).

Test: soluble fraction after stress (log2 fold change); higher = more stays soluble; pooled small domains, quantitative proteomics
Conditions: stress: pH 4
Recorded measurements of soluble fraction (log2), one per entry
Kindly provide the number alone.

# SEQUENCE_STRING, soluble fraction (log2)
data = [
    ("HMHTSEDLEKLLTRYFQSHESINRQQFEQLSGFTRTTASRRLKALVEAGKLKNIGLHHFPVYKPTEGNF", 0.134),
    ("HMTEELQDMESRIIEAAKRVFVRKGYEATKMSDIALEVGLGRTALHYYFRTKEMLFDAIFGRLMGV", -0.594),
    ("HMALSSQQIKDMQSWYGTKADGIWGSKSTTAAGGRDAGAAYSLYSSNKGRYSSYTDYMSYGGG", -0.000306),
]

Prompt: Which soluble fraction (log2) value is on record for HMDPTYYFNLYPNPSKDEVSLFTNFTGKINIEILDLAGKSILSDNPISTISLVSLKEGLYLVKVKS ?
Completion: -0.337

Prompt: Which soluble fraction (log2) value is on record for HMLGFELVGIRGNNPESTIIILERDDYRLVEQGQNINSSVIFSHIDGSRAYFFDGQTYTFLDI ?
Completion: -2.77

Prompt: Which soluble fraction (log2) value is on record for HMKEIATKSELTYFIQRLLDLLEETNFFNPEERKKAMINHIEAIFRRNNLTLQELNMLHGIITSITR ?
Completion: -1.38

Prompt: Which soluble fraction (log2) value is on record for HMNPIDAHVGARVRLRRMLIGMSQEKLGELLGVTFQQIQKYEKGANRIGASRLYEVSRVLDVPVQYFFDDM ?
Completion: -0.436

Prompt: Which soluble fraction (log2) value is on record for HMGPKPVDMSPIPEGQRNQVLHDWMYGRAANHPENWGQIRSDALERGLKSGLKADEIHAITGSVARALGLE ?
Completion: 0.0794

* * *

Assay: soluble fraction after stress (log2 fold change); higher = more stays soluble; pooled small domains, quantitative proteomics
Conditions: stress: pH 4
Recorded measurements of soluble fraction (log2), one per entry
Kindly provide the number alone.

Here's what some known entries look like.
# SEQUENCE_STRING, READOUT_VALUE
measured = [
    ("HMSNATELVYDDGRKLLISYETLVGGYHPDLGWIRTAKTYSISTDKHIRNYFNNVTNPRVVGEDILETLKI", -0.237),
    ("HMQDKIWVVDETQLYPKLIEAMSEGKAVIHDGVAYWAEGSGKTGVIQHLPFKETTVQNVEEAIKLAQ", -0.543),
    ("HMPPLVLRGVVMGADGARLAILAQGEAGAALGIGETWKEYTLRSVTDQSATLEHRSGTITLTR", -0.437),
    ("HMSRQDYLQTIYRLSVGKGYTTNKKIADFLSVSKPSVTEMIGKLQGEGLVAMDGAHIFLTEDGAEQ", 0.108),
    ("HMNPDTERIREFVAVSLKNRKVATSGEIQNMIVKQFKNFKLKSHGYSNMKSFLSSIDKIQLNSNGKYSLK", 0.0764),
]

Prompt: Which soluble fraction (log2) value is on record for HMAEVALFVNGSDVNLRSGPGQESTRVIGSLNLGDEVRIKSQNGQWREVYVPKTRQVGWVAHWLLSEAPP ?
Completion: -0.527

Prompt: Which soluble fraction (log2) value is on record for HMFDENVKLIENEYDVSIISRGSELKVMGDVENVDKAARALRSMLAMINKGESLTEQNVRYVLTLVNEGNE ?
Completion: -1.38

Prompt: Which soluble fraction (log2) value is on record for HMGAAFITSSKDNAINIRQSANTDSKVIETVTNGQILESNEKSGEWHKVTYYDNDIKKSFTGYVHEGQLK ?
Completion: -0.129

Prompt: Which soluble fraction (log2) value is on record for HMLPLIEVPAVTGKYLTKAKSALKDAGLDTGDIKRVEHEEHGENYVLKQDPPAGTKVPFGTTVSLTVVAP ?
Completion: 0.15

Prompt: Which soluble fraction (log2) value is on record for HMTDTIALRSVIAESGLKYKALAEIMGLSPYTLQMKIDNESEFKASEIDALANALGMDMQQRDSIFF ?
Completion: -0.406

Prompt: Which soluble fraction (log2) value is on record for HMKHYIDFIAEQLKTLTAIPSPSGYTKNATDYLMKLLQDMGYEPKLSRKGNVFVTLGGDGEPLVLAAHVD ?
Completion: -0.112

Prompt: Which soluble fraction (log2) value is on record for HMRRLGTTEIAGILRREISQGILIAKERLPSERSLADTYGVARGTVRQALNLLAREGLVQIRRSSGAYVTF ?
Completion: -0.299

Prompt: Which soluble fraction (log2) value is on record for HMIDFDEIEILSSSKIEKIENSEYLKSSIFEKDSNQYIYRLSFENRDQLKNFKKEIEDIDQIKKIDVTY ?
Completion: -0.665

Prompt: Which soluble fraction (log2) value is on record for HMLKDKLSDKDFDFYKNKIQIQLQGNPTELKELVRRFSSTEEQQILKTIDYMLDNGFLRIDEDNMIYWK ?
Completion: -1.8

Prompt: Which soluble fraction (log2) value is on record for HMNRIFQERVVPAELDTLRADKVAASLFSDFSRNELAHWIKMGDLSINGGVKKAKDKLFEGDVLILDVEIV ?
Completion: -0.679

Prompt: Which soluble fraction (log2) value is on record for HMIKLSTNENTALRLVMERGLVTESELKGLFDNPVAVMESLISKMIETNTHWIHSERSENGEWVYAWQ ?
Completion: -1.46

Prompt: Which soluble fraction (log2) value is on record for HMQIIEVPYSEFLKKLESGQISEVSRDSYQIVFTDRSQPPIIYKTGLMEDPGLVDKMQEAGVTFTSP ?
Completion: -0.228

Prompt: Which soluble fraction (log2) value is on record for HMEPVTETVYAMDTVNIRAAADQTSEKIGSVTVGTALTRTGTDGDWSIIDYNGTTGYVKSEFLSNTAPEV ?
Completion: -0.22

Prompt: Which soluble fraction (log2) value is on record for HMESEIYKKIEKSRLLELAFTKSQKGDLTGAYDLYYQAFTKYDVIADNQNRYFEDFISLIRRKQQQD ?
Completion: -0.822

* * *

Assay: soluble fraction after stress (log2 fold change); higher = more stays soluble; pooled small domains, quantitative proteomics
Details: stress: pH 4
MEASURED_QUANTITY: soluble fraction (log2)
Kindly provide the number alone.

# SEQUENCE_STRING, soluble fraction (log2)
rows = [
    ("HMDAEETLGARLRRLRQARGLSLAGLAQAAGLSKPSIWAWENGTTAPRRTSLLALARALDVPEQQLTGV", -0.173),
    ("HMDYKYYIVKEPMVVKNLELPVGTRIVYFNTSLFGDSESSRPLKEKNIYQIFFPDDKPLIWGGVPVSLIER", -0.546),
    ("HMVDPAEASKRAREYLDALPADDLKDVIRQFSATLAEGSVVLGYFQRSGLKSKVVKTALEQFVASTILSK", -0.268),
]

Next, consider the following sequence.
Prompt: Which soluble fraction (log2) value is on record for HMGLNEGLNEGQQKVIQHIQENEGIKVKEISLKLNMPIDTVDRHIRVLKNLNLIERRGSRKTGGYFISN ?
Completion: 0.111

* * *

Recorded measurements of soluble fraction (log2), one per entry
Test: soluble fraction after stress (log2 fold change); higher = more stays soluble; pooled small domains, quantitative proteomics
Details: stress: pH 4
Kindly provide the number alone.

Here's what some known entries look like.
# SEQUENCE_STRING, soluble fraction (log2)
measured = [
    ("HMHFEWNELRKAINDFLAEQNMNEDKQLGPYFIQRDIVVPETGTEIDSKKFSEVFKHKVIMYLFDDAAKQ", -0.441),
    ("HMENMETSDIVARYSNMPGGIIEAFHEIVDRHGFLSQEAIIEAARGFGISVAEAYGVATFYSMFS", -0.42),
    ("HMKDKSEKTKKLIFEAAFKIIREEGFSELSANKIAQVASVSKGVIFHHFSQMDDLYLFMLDTL", 0.192),
]

Prompt: Which soluble fraction (log2) value is on record for HMETSVDEVYKKIQAYIEAEDKHKPLSDQKLAEQLQSDGLKVSRRTVAKYREKLNIASSSKRKR ?
Completion: 0.379

Prompt: Which soluble fraction (log2) value is on record for HMATTIEAPMPGKILDVKVNPGQAVSYGQVVLTMEAMKMETEIVAPADGTVASVLVKSGDMVETGAALVSL ?
Completion: -0.268

* * *

Assay: soluble fraction after stress (log2 fold change); higher = more stays soluble; pooled small domains, quantitative proteomics
Settings: stress: pH 4
Recorded measurements of soluble fraction (log2), one per entry
Kindly provide the number alone.

# SEQUENCE_STRING, soluble fraction (log2)
rows = [
    ("HMVNEALDEFFVGLKNLYESATGKPAIAGAHFDGEPKTDFEKLMYLGYQIIRPAQAYPSALKAYERAIARS", -1.15),
    ("HMPNPALESARPAFEAFLSRFSDGEAMRGPAWGLWSLLHRKGNAPTASHAAGRDGMGVLAFLRHWQWG", -0.551),
    ("HMEEITLQEQINFIKDMLLNKEKFHLTDVITKKSKIYVVSLFLALLELIRLEEINFRQTQNFSDIIISRI", -0.381),
    ("HMSSESIKTDKNVGVGSTLEELEKAYGSDYTLSGKMYRYYQDDNSKYMYFFILNDVVQYYGYGIDV", -1.38),
    ("HMFDFLELGQAIQDAREKQRITREELAEELGISARHLQSVEKEGQYPSFRLFIQLVTMFHISVDQYI", -0.586),
]

Prompt: Which soluble fraction (log2) value is on record for HMLGITEGSLVRVIRSPNFGKIGTVAELPAELRMMESETMVRIAIVEIEGTNFEIPRSNLEVLET ?
Completion: -1.28

Prompt: Which soluble fraction (log2) value is on record for HMVAGHLQEKNGYFYIVLNYTNHEGKRKSKWITTGLTVKGNKKRAQDLLQEARKTFVPDIPT ?
Completion: 0.22

Prompt: Which soluble fraction (log2) value is on record for HMEFTFTLPRGYIDDTGMIHREGTMRLANAADEILPLKDPRVQQNPGYLTIILLARVITKLGSL ?
Completion: -0.165

Prompt: Which soluble fraction (log2) value is on record for HMPTMEQTYIGRTMIAEEDMGKNSKIKVSGIYWTAYNKGRVIKKGEEYKITGIEGNKLIVSSK ?
Completion: 0.179

Prompt: Which soluble fraction (log2) value is on record for HMKMTIEDLITQAKESNAAENYYEAFQLYSKAIDVLPNDPDLYSARGVVLFHLDRKEDSLIDMNKSVD ?
Completion: -0.879

Prompt: Which soluble fraction (log2) value is on record for HMGEVYPSDIVEKMKQANLHILEGTLYPLLTRLKNAGLLNYRWVESVTGPPRKYFVMTEEGKAAF ?
Completion: 0.0276

Prompt: Which soluble fraction (log2) value is on record for HMTGIESVKPSSDFTVEGNRIVAGDAEVEVYDLAGRKVNNNNLTTGVYIAKIAGSAESVKVFV ?
Completion: 0.22

Prompt: Which soluble fraction (log2) value is on record for HMSLSPAATRSRGYPSVLLTMKAPERLVSAAGPDRRAYLVGTDPLVIELPGVKGLYKVDPDQIVFE ?
Completion: -0.0637

Prompt: Which soluble fraction (log2) value is on record for HMNTFKNIFIQEGDLFNLKKNDNQIIFAKEGILINENKKIFRLLNGKIISTNNNRLIGFEFDKIDYNLSN ?
Completion: -0.0628

Prompt: Which soluble fraction (log2) value is on record for HMNTGIPHQEVIKKLYSFAEGGDWKGLKEELNRIKEYTLFYNSVKELADSFEINRLIEKLKTYIF ?
Completion: -0.0132

Prompt: Which soluble fraction (log2) value is on record for HMTSVQDLLRNGDRVGYQNGSTVKYWLEEMGFHKKDLLGYVTVEEYAEALQRGSGNGGVSAIVD ?
Completion: -1.7

Prompt: Which soluble fraction (log2) value is on record for HMSEHKFIVPEEFNLKRLDQTVAAQFEKISRTKISKIIKSSLLKVNDKVVTDQSIKIKQDDVITFTEIKDQ ?
Completion: 0.237
